target: T1, cMet-Fc fusion protein (extracellular domain of the cMet receptor expressed as an Fc-fusion protein) (human, UniProt P08581 25-932); assay: fluorescence polarization, 20 nM fluorescein peptide, cMet-Fc varied
T1 construct: extracellular domain; also called soluble cMet-Fc-fusion protein; soluble cMet receptor; not shown: Fc part
T1 sequence (P08581 25-932): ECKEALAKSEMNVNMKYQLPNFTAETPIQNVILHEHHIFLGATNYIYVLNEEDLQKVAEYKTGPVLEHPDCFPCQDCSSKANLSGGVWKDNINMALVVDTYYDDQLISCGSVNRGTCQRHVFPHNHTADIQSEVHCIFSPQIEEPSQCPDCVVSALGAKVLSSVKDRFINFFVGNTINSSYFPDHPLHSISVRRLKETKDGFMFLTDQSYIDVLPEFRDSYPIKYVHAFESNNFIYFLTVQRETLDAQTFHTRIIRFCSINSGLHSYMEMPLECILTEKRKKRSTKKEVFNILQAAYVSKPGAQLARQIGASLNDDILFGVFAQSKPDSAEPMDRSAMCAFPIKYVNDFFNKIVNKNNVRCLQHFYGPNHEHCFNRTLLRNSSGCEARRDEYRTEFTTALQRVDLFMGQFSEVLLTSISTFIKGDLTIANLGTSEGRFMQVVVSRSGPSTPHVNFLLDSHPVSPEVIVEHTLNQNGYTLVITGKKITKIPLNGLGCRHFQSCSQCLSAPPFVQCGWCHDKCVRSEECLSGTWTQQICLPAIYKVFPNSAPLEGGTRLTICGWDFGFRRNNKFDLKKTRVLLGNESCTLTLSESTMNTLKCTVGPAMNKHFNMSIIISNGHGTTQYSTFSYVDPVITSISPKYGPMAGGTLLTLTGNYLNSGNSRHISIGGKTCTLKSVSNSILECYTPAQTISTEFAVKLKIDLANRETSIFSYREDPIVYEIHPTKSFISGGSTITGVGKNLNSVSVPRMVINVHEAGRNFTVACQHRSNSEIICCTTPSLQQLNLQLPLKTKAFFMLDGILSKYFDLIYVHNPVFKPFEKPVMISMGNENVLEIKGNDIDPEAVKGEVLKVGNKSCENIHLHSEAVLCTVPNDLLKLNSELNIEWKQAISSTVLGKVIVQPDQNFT
fluorescein = fluorescein label on the side chain of the C-terminal Lys
Mark each entry rule met if its Kd sits below 2000 nM, and rule not met for all others.

# BINDER, DISCRETE LABEL
rows = [
    ("Ac-AGDIVCTGHPYFECWSWGTGGGK(fluorescein)-NH2 (cysteine pairing not given here) [333-C05 synthetic fluorescein-labeled peptide (SEQ ID NO: 068)]", "rule not met"),
    ("Ac-AQHSVQRQMDVWMPVQFMAGFTGGGK(fluorescein)-NH2 [02-B08 synthetic fluorescein-labeled peptide (SEQ ID NO: 467)]", "rule not met"),
    ("Ac-AQSPYIFPIDDSGRQIFVIQWGGGGK(fluorescein)-NH2 [76-D09 synthetic fluorescein-labeled peptide (SEQ ID NO: 463)]", "rule not met"),
    ("Ac-AGSIQCKGPPWFSCAMYGTGGGK(fluorescein)-NH2 (cysteine pairing not given here) [325-H05 synthetic fluorescein-labeled peptide (SEQ ID NO: 048)]", "rule not met"),
    ("Ac-AQVPDWLSAVVIEKLIEYGMMVGGGK(fluorescein)-NH2 [93-C08 synthetic fluorescein-labeled peptide (SEQ ID NO: 464)]", "rule not met"),
]

Problem: Consider Ac-AQHQYGQMMVLHIQYDMGEFIPGGGK(fluorescein)-NH2 [117-F08 synthetic fluorescein-labeled peptide (SEQ ID NO: 462)] . Does its Kd lie strictly below 2000 nM?
Solution: rule not met

Problem: Consider Ac-AGNWICTGPPSFGCWYHGTGGGK(fluorescein)-NH2 (cysteine pairing not given here) [331-G06 synthetic fluorescein-labeled peptide (SEQ ID NO: 078)] . Does its Kd lie strictly below 2000 nM?
Solution: rule not met

Problem: Consider Ac-AQKETWEFFDIVYGSGWKFNSPGGGK(fluorescein)-NH2 [116-H02 synthetic fluorescein-labeled peptide (SEQ ID NO: 466)] . Does its Kd lie strictly below 2000 nM?
Solution: rule not met

Problem: Consider Ac-AQVEDMATVHFKFNPATHEVIWGGGK(fluorescein)-NH2 [524-H02 synthetic fluorescein-labeled peptide (SEQ ID NO: 492)] . Does its Kd lie strictly below 2000 nM?
Solution: rule met

Problem: Consider Ac-AGSWHCAGPPSFECWEFGTGGGK(fluorescein)-NH2 (cysteine pairing not given here) [331-G04 synthetic fluorescein-labeled peptide (SEQ ID NO: 055)] . Does its Kd lie strictly below 2000 nM?
Solution: rule met
